# test-name: qHTS assay to identify small molecule antagonists of the estrogen related receptor (ERR) signaling pathway from Tox21 library - cell viability counter screen (AID 1224834); note: nearly all actives have a fitted effect of over 30% in size
# condition-label: ERR reporter cells viability, CellTiter-Fluor, 17.5 h; series mostly up to 92.4 µM
# Method: National Center for Advancing Translational Sciences [NCATS] NIH Chemical Genomics Center [NCGC] U.S. Environmental Protection Agency [EPA] National Institutes of Environmental Health Sciences [NIEHS] National Toxicology Program [NTP] […] The ERR cells were dispensed at 2,000 cells/5 ul/well in 1536-well white plates using a Multidrop dispenser. […] After 30-minute incubation at 37 C/5% CO2, the fluorescence intensity in the plates was measured using a ViewLux plate reader.
Inconclusive results are not listed. The source made the active and inactive calls. Calls come from the whole dose curve; as a rule, active = well fitted cell-killing curve with a large enough effect in the repeat runs; inconclusive = weak or mixed curves; inactive = flat fitted curve, though single readings scatter.
Would you mind answering with one of these outcomes? active, inactive

Completed entries (count: 3):
CN1Cc2c(N)cccc2C(c2ccccc2)C1 (stereo not drawn); inactive
CC(=O)Nc1ccc(CC(=O)O)cc1; inactive
C=C1C[C@]23C[C@@]1(O)CC[C@H]2[C@@]12C=C[C@H](O)[C@@](C)(C(=O)O1)[C@H]2[C@@H]3C(=O)O; inactive

Prompt line: Assay result, entry Cc1ccncc1 — outcome?
Response line: inactive

Prompt line: Which outcome was assigned to COc1c(Cl)ccc(Cl)c1C(=O)O in this test?
Response line: inactive

Prompt line: Recorded call for OCC(CO)(CO)CO ?
Response line: inactive

Prompt line: Could you check what this test reported for COc1ccc2cc3[n+](cc2c1OC)CCc1cc2c(cc1-3)OCO2 ?
Response line: active

Prompt line: # outcome recorded in this test, key = COc1ccc([C@@H]2CC(=O)c3c(O)cc(O[C@@H]4O[C@H](CO[C@@H]5O[C@@H](C)[C@H](O)[C@@H](O)[C@H]5O)[C@@H](O)[C@H](O)[C@H]4O)cc3O2)cc1OC
Response line: inactive

###

# tested-system: Cytochrome P450 2C9 (Homo sapiens)
# test-name: Cytochrome P450 Family 2 Subfamily C Member 9 (CYP2C9) small molecule antagonists: luciferase reporter qHTS assay (AID 1671198); note: % is set by controls: 0 for no effect and ±100 for the full control effect; nearly all actives have a fitted effect of over 50% in size
# condition-label: P450-Glo CYP2C9 enzyme assay, luciferin luminescence; series mostly up to 115 µM
# Excerpt: U.S. Tox21 Program National Center for Advancing Translational Sciences [NCATS] U.S. Environmental Protection Agency [EPA] National Institutes of Environmental Health Sciences [NIEHS] National Toxicology Program [NTP] U.S. Food and Drug Administration [FDA] […] The luciferin products formed are detected with a luciferin detection reagent, and the amount of light produced is proportional to CYP activity. […]
Records with an inconclusive call do not appear. The source made the active and inactive calls. Calls follow the shape of the dose curve; as a rule, active = well fitted inhibition curve with a large enough effect in the repeat runs; inconclusive = weak or mixed curves; inactive = no such curve, though single readings can be large or run the other way.
Select the correct class. Options are 1 (yes) = active, 0 (no) = inactive and nothing else.

O=[N+]([O-])c1ccccc1C(F)(F)F; 0 (no)
O=Cc1ccc(CO)o1; 0 (no)
O=C1OC(=O)c2c(Cl)c(Cl)c(Cl)c(Cl)c21; 0 (no)
CC(=O)Nc1ccc(CC(=O)O)cc1; 0 (no)
COC(=O)CCCCC(=O)OC; 0 (no)
CCCCCCCCCCCCCC(=O)O; 0 (no)

Prompt line: Assay outcome for CC(=O)CC(=O)N(C)C : what was it?
Response line: 0 (no)

Prompt line: Check the results log: what was the call for OB(O)O ?
Response line: 0 (no)

Prompt line: Entry CCCCCC(C)=O : call = ?
Response line: 0 (no)
